Tested on: HL-60
Test: NCI tumour cell line growth inhibition, 48 h
Calls of active or inactive are those of the source. Cut-off read from the data, not from the text of the source: active = GI50 up to about 1.1 µM and inactive = higher.
Result category, one only: active, inactive

CN1C(=O)C(=O)N2c3ccc(Cl)cc3C3(c4ccccc4)N=CC12O3 (configuration not stated) | inactive
COC(=O)c1c(-c2cc(OC)c(OC)c(OC)c2)oc2ccccc2c1=O | inactive

Query :: Please share the test call associated with O=C(COc1ccc(Cl)c(Cl)c1)Nc1ccc[n+](Cc2ccc(S(=O)(=O)F)c(Cl)c2)c1 .
Result :: inactive

Query :: Please share the test call associated with S=C1CNC(=S)CN1 .
Result :: inactive

Query :: Please share the test call associated with Nc1nc(=O)n([C@@H]2CC[C@H](CO)O2)cc1F .
Result :: inactive

Query :: Please share the test call associated with C=CCn1c(=O)ccn(COCCO)c1=O .
Result :: inactive

Query :: Please share the test call associated with C=CCN1C(=O)/C(=C/c2ccc(OC)cc2)NC1=S .
Result :: active

Query :: Please share the test call associated with CCCCCN1CCN(c2ncccn2)CC1 .
Result :: inactive

Query :: Please share the test call associated with C=C1C(=O)OC2/C=C(/C)C(OC(C)=O)C/C=C(\C)C(OC(=O)C3(C)OC3C)C(O)C12 (configuration not stated) .
Result :: inactive

Query :: Please share the test call associated with Nc1ncn(C2C=C(CO)C(O)C2O)c(=O)n1 (configuration not stated) .
Result :: inactive

Query :: Please share the test call associated with C=C1CC(OC)(C(O)C(=O)N[C@H]2OCO[C@H]3C2O[C@H](C[C@@H](COC)OC)C(C)(C)C3OC)O[C@H](C)[C@@H]1C (some centres not stated) .
Result :: active

Query :: Please share the test call associated with O=[N+]([O-])C(/C=C(\Cl)[N+](=O)[O-])=C1Nc2ccccc2N1 .
Result :: inactive

Query :: Please share the test call associated with N=C(N)Nc1ccc(-c2ccc(NC(=N)N)cc2)cc1 .
Result :: inactive

Query :: Please share the test call associated with COc1ccc(-c2c(C#N)c(S)n(NS(=O)(=O)c3ccc(C)cc3)c(=O)c2C#N)cc1 .
Result :: inactive

###

Tested on: OVCAR-4
Experiment: NCI tumour cell line growth inhibition, 48 h
The source made the active and inactive calls. Rule as the data show it: active = GI50 up to about 1.1 µM and inactive = higher.
Result category, one only: true (1) (active), false (0) (inactive)

Study these solved cases before continuing.
COc1cc(N(C)C)ccc1C=c1c2ccccc2n2c1cc(-c1ccccc1)[n+]2C | true (1)
CN1CCc2c(sc3ncn(Nc4ccc(Cl)cc4)c(=N)c23)C1 | false (0)
BrCC(Br)(c1ccccc1)c1ccccc1-c1cc(-c2ccccc2)cc(-c2ccccc2)n1 (stereo not drawn) | false (0)
COCOC1/C=C/CCCC#C[C@H](C)C(=O)CC1 (stereo partly drawn) | false (0)
CC(=O)OCC1OC(Sc2ccccn2)C=CC1OC(C)=O (stereo not drawn) | false (0)

Query :: Please share the test call associated with O=C(COc1ccc(Cl)c(Cl)c1)Nc1ccc[n+](Cc2ccc(S(=O)(=O)F)c(Cl)c2)c1 .
Result :: false (0)

Query :: Please share the test call associated with C=C1CC(OC)(C(O)C(=O)N[C@H]2OCO[C@H]3C2O[C@H](C[C@@H](COC)OC)C(C)(C)C3OC)O[C@H](C)[C@@H]1C (stereo partly drawn) .
Result :: true (1)

Query :: Please share the test call associated with O=c1ccccc2cccc(O)c12 .
Result :: false (0)

Query :: Please share the test call associated with CO[C@@]12[C@H](COC(N)=O)C3=C(C(=O)C(C)=C(N)C3=O)N1C[C@H]1[C@@H]2N1C (stereo partly drawn) [PORFIROMYCIN] .
Result :: false (0)
